Target: human Siglec-7 on primary human monocyte-derived dendritic cells (human, UniProt Q9Y286 19-467)
Sequence (Q9Y286 19-467): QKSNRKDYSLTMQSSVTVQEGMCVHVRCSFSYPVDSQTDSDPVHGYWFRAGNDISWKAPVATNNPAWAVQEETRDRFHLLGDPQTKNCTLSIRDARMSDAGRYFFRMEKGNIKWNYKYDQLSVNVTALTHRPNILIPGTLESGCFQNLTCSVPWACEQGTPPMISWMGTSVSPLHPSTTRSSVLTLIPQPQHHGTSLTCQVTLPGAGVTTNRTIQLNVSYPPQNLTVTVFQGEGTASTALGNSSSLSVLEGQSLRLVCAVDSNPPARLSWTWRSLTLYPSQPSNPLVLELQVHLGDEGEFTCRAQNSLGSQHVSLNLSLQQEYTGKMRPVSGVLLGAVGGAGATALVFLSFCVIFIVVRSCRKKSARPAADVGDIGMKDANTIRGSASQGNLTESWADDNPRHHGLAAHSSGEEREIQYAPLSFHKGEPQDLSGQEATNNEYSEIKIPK
Experiment: cell-based or functional assay
quantity.name: Maximal downregulation (% Siglec-7 remaining)

Worked cases, answers included:
[
  {
    "binder": "S7AB-H8.31 (antibody, V domains shown) VH: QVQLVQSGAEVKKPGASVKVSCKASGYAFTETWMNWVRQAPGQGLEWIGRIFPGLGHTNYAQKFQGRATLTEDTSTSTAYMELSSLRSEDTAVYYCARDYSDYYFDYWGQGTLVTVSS VL: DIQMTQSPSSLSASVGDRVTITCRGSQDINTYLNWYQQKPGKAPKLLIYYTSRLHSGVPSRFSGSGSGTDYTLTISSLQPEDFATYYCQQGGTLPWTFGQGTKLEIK",
    "value.reported": "10.5%"
  },
  {
    "binder": "S7AB-H8.29.2 (antibody, V domains shown) VH: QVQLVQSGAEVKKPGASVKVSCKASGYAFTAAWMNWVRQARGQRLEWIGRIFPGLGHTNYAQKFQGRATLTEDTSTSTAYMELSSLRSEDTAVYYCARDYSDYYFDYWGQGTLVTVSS VL: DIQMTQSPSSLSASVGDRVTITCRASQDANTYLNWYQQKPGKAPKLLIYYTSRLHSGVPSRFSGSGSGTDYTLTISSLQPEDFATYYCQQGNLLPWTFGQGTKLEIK",
    "value.reported": "4.9%"
  },
  {
    "binder": "S7AB-H8.17 (antibody, V domains shown) VH: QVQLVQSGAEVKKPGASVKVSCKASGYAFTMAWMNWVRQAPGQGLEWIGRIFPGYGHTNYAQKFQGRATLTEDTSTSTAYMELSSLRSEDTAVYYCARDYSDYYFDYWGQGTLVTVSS VL: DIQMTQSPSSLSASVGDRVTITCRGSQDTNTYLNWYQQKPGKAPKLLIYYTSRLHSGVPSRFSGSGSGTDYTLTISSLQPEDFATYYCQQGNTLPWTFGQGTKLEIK",
    "value.reported": "8%"
  },
  {
    "binder": "S7AB-H8.35.1 (antibody, V domains shown) VH: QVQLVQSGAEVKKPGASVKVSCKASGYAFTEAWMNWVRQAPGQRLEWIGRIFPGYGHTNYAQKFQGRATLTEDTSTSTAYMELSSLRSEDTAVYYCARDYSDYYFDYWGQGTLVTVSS VL: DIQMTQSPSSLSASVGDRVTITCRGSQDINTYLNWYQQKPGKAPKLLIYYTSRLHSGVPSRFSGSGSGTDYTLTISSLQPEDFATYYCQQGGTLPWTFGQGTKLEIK",
    "value.reported": "10.5%"
  },
  {
    "binder": "S7AB-H8.35.2 (antibody, V domains shown) VH: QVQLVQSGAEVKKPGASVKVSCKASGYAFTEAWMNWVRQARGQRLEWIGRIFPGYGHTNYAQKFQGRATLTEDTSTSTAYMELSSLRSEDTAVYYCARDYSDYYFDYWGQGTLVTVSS VL: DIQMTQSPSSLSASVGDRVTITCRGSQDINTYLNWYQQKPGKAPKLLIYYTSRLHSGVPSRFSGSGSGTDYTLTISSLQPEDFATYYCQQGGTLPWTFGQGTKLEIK",
    "value.reported": "10.8%"
  },
  {
    "binder": "S7AB-H8.10 (antibody, V domains shown) VH: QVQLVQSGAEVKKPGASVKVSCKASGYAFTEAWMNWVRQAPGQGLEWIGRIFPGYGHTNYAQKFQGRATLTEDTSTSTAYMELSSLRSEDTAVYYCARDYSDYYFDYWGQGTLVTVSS VL: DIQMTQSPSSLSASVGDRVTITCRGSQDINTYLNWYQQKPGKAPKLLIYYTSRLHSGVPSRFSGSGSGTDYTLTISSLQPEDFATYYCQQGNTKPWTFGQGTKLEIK",
    "value.reported": "7%"
  }
]

# next binder below
IN: GET /values?readout=Maximal downregulation (% Siglec-7 remaining)&item= S7AB-H8.26 (antibody, V domains shown) VH: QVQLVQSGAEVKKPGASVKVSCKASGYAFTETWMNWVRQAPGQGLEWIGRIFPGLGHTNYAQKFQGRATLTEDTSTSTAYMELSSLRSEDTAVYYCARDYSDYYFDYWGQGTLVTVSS VL: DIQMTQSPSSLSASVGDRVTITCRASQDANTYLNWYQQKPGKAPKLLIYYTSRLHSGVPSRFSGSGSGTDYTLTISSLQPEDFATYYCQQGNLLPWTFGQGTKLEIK
OUT: 9.8%
